Provenance of the data: patent US20110152267A1

Here, each record is paired with measured CI data.
Test system: OE-19 esophageal adenocarcinoma cell line
Assay: DIMSCAN cytotoxicity, fenretinide + L-threo-sphinganines 3:1 (Example B19)
Assay type: cell-based, human
Conditions: 4-HPR 9 μM + L-threo-sphinganine 3 μM
Observation Type: CI

# Molecule, Experimental Target, Observation Type, Readout Value
measured = [
    ("CCCCCCCCCCCCCCCC[C@H](O)[C@@H](N)CO", "OE-19 esophageal adenocarcinoma cell line", "CI", 1.1),
    ("CCCCCCCCCCCCCCCCC[C@H](O)[C@@H](N)CO", "OE-19 esophageal adenocarcinoma cell line", "CI", ">>1"),
    ("CCCCCCCCCCCCCCC[C@H](O)[C@@H](N)CO [C18, (2S,3S)-2-amino-1,3-octadecanediol, reference compound]", "OE-19 esophageal adenocarcinoma cell line", "CI", 0.2),
    ("CCCCCCCCC[C@H](O)[C@@H](N)CO", "OE-19 esophageal adenocarcinoma cell line", "CI", ">>1"),
    ("CCCCCCCCCCCCCC[C@H](O)[C@@H](N)CO", "OE-19 esophageal adenocarcinoma cell line", "CI", 0.2),
]
